Assay: PK Study of Compounds in Dogs
Type: in vivo, Beagle dogs
Conditions: both sexes, beagle, dog, whole blood, IV 1 mg/kg (n=3), mean, read-out: C0/Cmax
parameter measured: Cmax (ng/mL)
I only need the number, in ng/mL, no unit after it.

Supply reported Cmax belonging to this compound: CC1OCCCn2c(c3c4cc(ccc42)-c2csc(n2)CC(NC(=O)C2C(C)C2C)C(=O)N2NC(C(=O)OCC(C)(C)C3)C3CC2C3)-c2cc(N3CCN(C)CC3)cnc21 (stereo not shown)
2020

* * *

Assay: PK Study of Compounds in Rats
Assay type: in vivo, Male SD rats
Conditions: male, SD, rat, whole blood, IV 1 mg/kg (n=3), mean, read-out: AUC0-t
Reported AUC(0-t) values for a set of compounds
Field: value (include unit after the number)

Example entries and their recorded answers appear below.
compound	parameter measured	result value
CC1OCCCn2c(c3c4cc(ccc42)-c2csc(n2)CC(NC(=O)C2C(C)C2C)C(=O)N2NC(C(=O)OCC(C)(C)C3)C3CC2C3)-c2cc(N3CCN(C4COC4)CC3)cnc21 (stereo not drawn)	AUC(0-t)	6940 ng·h/mL
CC1OCCCn2c(c3c4cc(ccc42)-c2csc(n2)CC(NC(=O)C2C(C)C2C)C(=O)N2NC(C(=O)OCC(C)(C)C3)C3CC2C3)-c2cc(N3CCN(C)CC3)cnc21 (stereo not drawn)	AUC(0-t)	7510 ng·h/mL

Supply reported AUC(0-t) belonging to this compound: CC1OCCCn2c(c3c4cc(ccc42)-c2csc(n2)CC(NC(=O)C2C4COCC42)C(=O)N2NC(C(=O)OCC(C)(C)C3)C3CC2C3)-c2cc(N3CCN(C)CC3)cnc21 (stereo not drawn)
4500 ng·h/mL

* * *

Test: PK Study of Compounds in Dogs
Format: in vivo, Beagle dogs
Conditions: both sexes, beagle, dog, whole blood, IV 1 mg/kg (n=3), mean
parameter measured: half-life (h)
I only need the number, in h, no unit after it.

Supply reported half-life belonging to this compound: CC1OCCCn2c(c3c4cc(ccc42)-c2csc(n2)CC(NC(=O)C2C(C)C2C)C(=O)N2NC(C(=O)OCC(C)(C)C3)C3CC2C3)-c2cc(N3CCN(C)CC3)cnc21 (stereo not shown)
34.8

* * *

Reported IC50 values for a set of compounds
Molecular target: KRAS G12D-cRAF (Homo sapiens, UniProt P01116, G12D)
Construct: expressed in transfected cells
Sequence (P01116 1-188 isoform P01116-2 G12D): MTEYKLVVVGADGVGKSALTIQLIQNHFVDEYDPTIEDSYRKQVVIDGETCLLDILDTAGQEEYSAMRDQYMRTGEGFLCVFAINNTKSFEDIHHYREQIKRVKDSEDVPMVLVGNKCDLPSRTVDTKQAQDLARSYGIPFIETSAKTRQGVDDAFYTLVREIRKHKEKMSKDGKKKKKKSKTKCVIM
Experiment: Cellular KRAS G12D-cRAF Binding Inhibition Assay (NanoBRET, AD293 stable cells)
Assay type: cell-based
Conditions: 3 h incubation, read-out: NanoBRET KRAS G12D
I only need the number, in nM, no unit after it.

Example entries and their recorded answers appear below.
compound	IC50 / nM
COC1CCN(c2cnc3c(c2)-c2c4c5cc(ccc5n2CCCOC3C)-c2csc(n2)CC(NC(=O)C2CC2C(F)F)C(=O)N2CCCC(N2)C(=O)OCC(C)(C)C4)C1 (stereo not drawn) [Example 136]	4.59
CC1OCCCn2c(c3c4cc(ccc42)-c2csc(n2)CC(NC(=O)C2C4COCC42)C(=O)N2NC(C(=O)OCC(C)(C)C3)C3CC2C3)-c2cc(N3CCN(C)CC3)cnc21 (stereo not drawn)	4.3

Then this compound:
Supply reported IC50 belonging to this compound: CC1OCCCn2c(c3c4cc(ccc42)-c2csc(n2)CC(NC(=O)C2CC2C(F)F)C(=O)N2CCCC(N2)C(=O)OCC(C)(C)C3)-c2cc(N3CC(N(C)C)C3)cnc21 (stereo not drawn)
6.55
